# target system: T1, recombinant human IFN-γ protein (human, UniProt P01579 24-166, limits assumed)
# T1 construct: Bought protein; also called interferon gamma; R&D systems 285-IF-100
# T1 sequence: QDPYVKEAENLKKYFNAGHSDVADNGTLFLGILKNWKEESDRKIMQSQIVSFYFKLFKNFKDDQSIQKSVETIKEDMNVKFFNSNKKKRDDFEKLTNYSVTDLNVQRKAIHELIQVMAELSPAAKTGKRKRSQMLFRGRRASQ
# test method notes: BLI (Octet RED96), mAb captured on AHC biosensor, recombinant human IFN-γ in solution, 1:1 model; second experiment
measured metric: Kd (nM)
Give bare numbers, in nM.

Kd for antibody AB (antibody, human IgG1, V domains shown, Combination of the 2A6 VH heavy chain and the 2B6 VL light chain; human IgG1 lambda; also called VH2A6/VL2B6) VH: EVQLVESGGGLVKPGDSLTVSCVASGFTFSNYFIHWVRQAPGKGLEWVATISGRTKYMFYSDSLRGRFTVSRDNANNSVYLHMSSLRGEDTALYYCVRGYDHSDSNSAADLLHWGRGTLVTVSS VL: NFMLTQPHSVSESPGKTITISCTRGRGYIASYYVQWYQQRPGGVPKIVVFEDTQRPSGVPDRISGSIDTSTNSASLTISGLQTEDEADYYCQSYDDANHVIFGGGTKLTVL ? 0.025

The origin of these recorded values is patent US20210171624A1.
